- target_system: PPAR delta (Homo sapiens, UniProt Q03181)
- Sequence (Q03181 211-439 limits assumed): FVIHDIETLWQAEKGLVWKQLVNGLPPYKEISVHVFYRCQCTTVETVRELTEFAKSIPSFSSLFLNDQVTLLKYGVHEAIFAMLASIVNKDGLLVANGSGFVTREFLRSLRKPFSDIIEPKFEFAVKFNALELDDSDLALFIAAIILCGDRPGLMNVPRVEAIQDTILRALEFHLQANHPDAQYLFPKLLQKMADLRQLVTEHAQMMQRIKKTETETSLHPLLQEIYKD
- assay_summary: Transient transfection (transactivation) assay in CV-1 cells, GAL4-PPAR chimera, luciferase reporter
recorded_metric: EC50

Consider the reported EC50 for these molecules:
# molecule, target_system, EC50
data = [
    ("Cc1ccc(S(=O)(=O)N2CCN(c3ccc(C(F)(F)F)cn3)CC2C(C)C)cc1CC(=O)O (centres unmarked)", "PPAR delta (Homo sapiens, UniProt Q03181)", "< 5 µM"),
    ("Cc1ccc(S(=O)(=O)N2CCN(c3ccc(C#N)cn3)CC2)cc1CC(=O)O", "PPAR delta (Homo sapiens, UniProt Q03181)", "< 5 µM"),
    ("O=C(O)CCc1cccc(S(=O)(=O)N2CCN(c3ccc(Cl)c(Cl)c3)CC2)c1", "PPAR delta (Homo sapiens, UniProt Q03181)", "< 5 µM"),
    ("Cc1ccc(S(=O)(=O)N2CCN(c3ncc(Br)cn3)CC2)cc1CC(=O)O", "PPAR delta (Homo sapiens, UniProt Q03181)", "< 5 µM"),
    ("O=C(O)COc1cccc(S(=O)(=O)N2CCN(c3ccc(C(F)(F)F)cc3)CC2)c1", "PPAR delta (Homo sapiens, UniProt Q03181)", "5 to 100 µM"),
]

For the molecule `O=C(O)COc1cccc(S(=O)(=O)N2CCN(c3ccc(Cl)c(Cl)c3)CC2)c1` , what EC50 is on record?
5 to 100 µM

Would you mind doing `Cc1ccc(S(=O)(=O)N2CCN(c3ccc(C(F)(F)F)c(F)c3)CC2)cc1CC(=O)O` as well?
< 5 µM

Request: `O=C(O)Cc1cccc(S(=O)(=O)N2CCN(c3ccc(C(F)(F)F)cc3Br)CC2)c1`
< 5 µM

Next record, please: `CCc1ccc(N2CCN(S(=O)(=O)c3ccc(C)c(CC(=O)O)c3)CC2)cc1`
< 5 µM

Check `Cc1ccc(S(=O)(=O)N2CCN(c3ccc(C(F)(F)F)cc3Br)CC2)cc1CC(=O)O` too.
< 5 µM

###

- target_system: PPAR gamma (Homo sapiens, UniProt P37231)
- Sequence (P37231 238-503 limits assumed): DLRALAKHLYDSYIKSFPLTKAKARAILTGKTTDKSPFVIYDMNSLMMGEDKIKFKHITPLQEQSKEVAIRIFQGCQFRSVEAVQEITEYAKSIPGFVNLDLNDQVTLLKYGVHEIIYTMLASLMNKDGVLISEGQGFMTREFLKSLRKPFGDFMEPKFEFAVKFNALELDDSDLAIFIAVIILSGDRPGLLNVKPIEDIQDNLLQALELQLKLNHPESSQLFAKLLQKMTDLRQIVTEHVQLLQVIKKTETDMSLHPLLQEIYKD
- assay_summary: Transient transfection (transactivation) assay in CV-1 cells, GAL4-PPAR chimera, luciferase reporter
pEC50: −log10 of the molar value.
Listed here: items and their measured pEC50.

Can you share its pEC50? I mean this molecule: `C[C@@H]1CN(c2ccc(C(F)(F)F)cn2)C[C@H](C)N1S(=O)(=O)c1cccc(CC(=O)O)c1`
< 4.00

Now the molecule `Cc1ccc(S(=O)(=O)N2CCN(c3nc4ccccc4s3)CC2)cc1CC(=O)O`
> 5.30

And O=C(O)Cc1cccc(S(=O)(=O)N2CCN(C(c3ccccc3)c3ccc(Cl)cc3)CC2)c1 (centres unmarked) ?
4.00 to 5.30

Now the same for `Cc1ccc(S(=O)(=O)N2[C@@H](C)CN(c3ccc(C(F)(F)F)cn3)C[C@@H]2C)cc1CC(=O)O`
4.00 to 5.30

Query `Cc1ccc(S(=O)(=O)N2CCC(c3ccc(C(F)(F)F)cc3)CC2)cc1CC(=O)O` next
4.00 to 5.30

Please answer likewise for `Cc1cc(CC(=O)O)cc(S(=O)(=O)N2CCN(c3ccc(OC(F)(F)F)cc3)CC2)c1`
4.00 to 5.30

What do you get for `COc1ccc(N2CCN(S(=O)(=O)c3cc(CC(=O)O)ccc3C)CC2)cc1OC` ?
< 4.00

Consider next the molecule `Cc1cc(CC(=O)O)cc(S(=O)(=O)N2C3CCC2CN(c2ccc(OC(F)(F)F)cc2)C3)c1` in the same way.
4.00 to 5.30
